pKd values, listed per item
- Assayed target: T1, S100A1 protein, dansyl-labelled (human, UniProt P23297 1-94, dansyl (DNS) label from dansyl chloride, site not stated)
- T1 construct: human S100A1; cDNA cloned into pET28b; No tag is mentioned; purification was by Phenyl Sepharose; also called DNS-S100A1; Ca2+-S100A1; source: E. coli BL21, purified (Phenyl Sepharose CL4B, Superdex 75), labelled with dansyl chloride
- T1 sequence (looked up): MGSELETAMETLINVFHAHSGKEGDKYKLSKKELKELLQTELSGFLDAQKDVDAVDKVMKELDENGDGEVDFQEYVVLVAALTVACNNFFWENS
- Method summary: fluorescence polarisation; steady-state fluorescence anisotropy; TRPC6 construct titrated into DNS-S100A1 solution (232 µM as printed) in presence of calcium ions; excitation 340 nm, emission 520 nm
- Assay conditions: both partners purified
Lab note — pKd values are minus log10 of concentrations in M.

Use the examples below as a reference point.
Binder	pKd
TRPC6(801–878) R852A/K859A/R860A (domain or fragment, rat, UniProt Q99N78 801-878, looked up, C-terminal part of rat TRPC6, amino acids 801-878, with R852A, K859A and R860A; Same construct as m1 (pET42b) with the triple substitution; also called triple mutation Arg852/Lys859/Arg860; source: E. coli Rosetta, purified (Chelating Sepharose Fast Flow, Superdex 75)) NKRNEEKKFGILGSHEDLSKFSLDRNQLAHNKQSSTRSSEDFHLNSFSNPPAQYQKIMAALIKRYVLQAQIDKESDEV	5.58
TRPC6(801–878) K856A (domain or fragment, rat, UniProt Q99N78 801-878, looked up, C-terminal part of rat TRPC6, amino acids 801-878, with K856A; Same construct as m1 (pET42b) with the point mutation; source: E. coli Rosetta, purified (Chelating Sepharose Fast Flow, Superdex 75)) NKRNEEKKFGILGSHEDLSKFSLDRNQLAHNKQSSTRSSEDFHLNSFSNPPRQYQAIMKRLIKRYVLQAQIDKESDEV	6.12
TRPC6(801–878) R852A (domain or fragment, rat, UniProt Q99N78 801-878, looked up, C-terminal part of rat TRPC6, amino acids 801-878, with R852A; Same construct as m1 (pET42b) with the point mutation; also called TRPC6 single mutant R852A; source: E. coli Rosetta, purified (Chelating Sepharose Fast Flow, Superdex 75)) NKRNEEKKFGILGSHEDLSKFSLDRNQLAHNKQSSTRSSEDFHLNSFSNPPAQYQKIMKRLIKRYVLQAQIDKESDEV	6.32

Asked: What does the data say about its pKd? Entry: TRPC6(801–878) K859A/R860A/R864A (domain or fragment, rat, UniProt Q99N78 801-878, looked up, C-terminal part of rat TRPC6, amino acids 801-878, with K859A, R860A and R864A; Same construct as m1 (pET42b) with the triple substitution; also called triple substitution Lys859/Arg860/Arg864; source: E. coli Rosetta, purified (Chelating Sepharose Fast Flow, Superdex 75)) NKRNEEKKFGILGSHEDLSKFSLDRNQLAHNKQSSTRSSEDFHLNSFSNPPRQYQKIMAALIKAYVLQAQIDKESDEV
Given back: 6.40

Asked: Same lookup for TRPC6(801–878) R864A (domain or fragment, rat, UniProt Q99N78 801-878, looked up, C-terminal part of rat TRPC6, amino acids 801-878, with R864A; Same construct as m1 (pET42b) with the point mutation; source: E. coli Rosetta, purified (Chelating Sepharose Fast Flow, Superdex 75)) NKRNEEKKFGILGSHEDLSKFSLDRNQLAHNKQSSTRSSEDFHLNSFSNPPRQYQKIMKRLIKAYVLQAQIDKESDEV , please.
Given back: 6.04
